All figures here come from patent US20250059270A1.

TESTED SYSTEM: T1, human IL-6 (human, UniProt P05231 30-212)
T1 construct: Recombinant protein was R&D Systems 206-IL/CF where stated; It was biotinylated in the yeast display assays and amine-coupled to the chip in SPR; also called free IL-6; biotinylated human IL-6
TEST SUMMARY: yeast surface display of Fab, flow cytometry (APC-A = bound biotinylated IL-6, FITC-A = display) after overnight competition with 2 µM IL-6
Here the recorded Fold increase in binding/display over wt is given for each entry.
PROPERTY: Fold increase in binding/display over wt (fold)

BINDER	REPORTED VALUE
EBI-030 Fab (A28V/S30P/I51T/S55G) (Fab, V domains shown, IgG1 Fab; also called A28V/S30P/I51T/S55G (EBI-030)) VH: QVQLVQSGAEVKKPGSSVKVSCKASGYVLPNYLIEWVRQAPGQGLEWMGVTTPGGGTINYAQKFQGRVTITADESTSTAYMELSSLRSEDTAVYYCARSRWDPLYYYALEYWGQGTTVTVSS VL: DIVMTQSPDSLAVSLGERATINCRASESVDNYGIPFMNWYQQKPGQPPKLLIYAASNRGSGVPDRFSGSGSGTDFTLTISSLQAEDVAVYYCQQSEEVPLTFGQGTKLEIKR	4
EBI-029 Fab variant I51T/S55G (Fab, V domains shown) VH: QVQLVQSGAEVKKPGSSVKVSCKASGYALSNYLIEWVRQAPGQGLEWMGVTTPGGGTINYAQKFQGRVTITADESTSTAYMELSSLRSEDTAVYYCARSRWDPLYYYALEYWGQGTTVTVSS VL: DIVMTQSPDSLAVSLGERATINCRASESVDNYGIPFMNWYQQKPGQPPKLLIYAASNRGSGVPDRFSGSGSGTDFTLTISSLQAEDVAVYYCQQSEEVPLTFGQGTKLEIKR	1.92
EBI-029 Fab variant A28V/I51T/S55G (Fab, V domains shown) VH: QVQLVQSGAEVKKPGSSVKVSCKASGYVLSNYLIEWVRQAPGQGLEWMGVTTPGGGTINYAQKFQGRVTITADESTSTAYMELSSLRSEDTAVYYCARSRWDPLYYYALEYWGQGTTVTVSS VL: DIVMTQSPDSLAVSLGERATINCRASESVDNYGIPFMNWYQQKPGQPPKLLIYAASNRGSGVPDRFSGSGSGTDFTLTISSLQAEDVAVYYCQQSEEVPLTFGQGTKLEIKR	3.1
